Test system: 292921-168-R-J2-PDC KRAS tumor spheroid viability
Assay: Anticancer human tumor 292921-168-R-J2-PDC patient-derived pancreatic carcinoma cell line growth inhibition [KRAS2]
Settings: second compound 10 µM; first compound 0.316 µM; active compounds read low; spheroids with HUVEC and MSC
Text: Multicellular complex tumor spheroid response to RAS pathway inhibitors in combination with a targeted agents in patient-derived cell lines with oncogenic KRAS variants from multiple cancer types A high-throughput screen of multi-cell type tumor spheroids was designed to identify active combinations of targeted small molecules and KRAS pathway inhibitors. […] Compounds. […] If the clinical Cmax for an agent had not been determined, the highest concentration tested was 10 microM. […]
Note to self: use yes only for viability, T/C readings below 30%; a reading exactly at 30% still gets no.

{"compound": "CC1(C)CCC(CN2CCN(c3ccc(C(=O)NS(=O)(=O)c4ccc(NCC5CCOCC5)c([N+](=O)[O-])c4)c(Oc4cnc5[nH]ccc5c4)c3)CC2)=C(c2ccc(Cl)cc2)C1 + CC1OCC2(CCN(c3cnc(Sc4ccnc(N)c4Cl)c(N)n3)CC2)C1N", "class": "no"}

Just wondering, is viability, T/C of COc1cc2nccc(Oc3ccc(NC(=O)C4(C(=O)Nc5ccc(F)cc5)CC4)cc3)c2cc1OC + CC1OCC2(CCN(c3cnc(Sc4ccnc(N)c4Cl)c(N)n3)CC2)C1N below 30%?
no

Another compound to look at: O=C(c1cc(Cc2n[nH]c(=O)c3ccccc23)ccc1F)N1CCN(C(=O)C2CC2)CC1 + C=CC(=O)N1CCN(c2nc(=O)n(-c3c(C)ccnc3C(C)C)c3nc(-c4c(O)cccc4F)c(F)cc23)C(C)C1
yes

Another compound to look at: CCN1CCN(Cc2ccc(Nc3ncc(F)c(-c4cc(F)c5nc(C)n(C(C)C)c5c4)n3)nc2)CC1 + C=CC(=O)N1CCN(c2nc(=O)n(-c3c(C)ccnc3C(C)C)c3nc(-c4c(O)cccc4F)c(F)cc23)C(C)C1
yes

Another compound to look at: CC1(C)CCC(CN2CCN(c3ccc(C(=O)NS(=O)(=O)c4ccc(NCC5CCOCC5)c([N+](=O)[O-])c4)c(Oc4cnc5[nH]ccc5c4)c3)CC2)=C(c2ccc(Cl)cc2)C1 + COc1cc2nc(C)nc(NC(C)c3cc(N)cc(C(F)(F)F)c3)c2cc1OC1CCOC1
no

====

test system: 292921-168-R-J2-PDC KRAS tumor spheroid viability; experiment: Anticancer human tumor 292921-168-R-J2-PDC cell line growth inhibition [KRAS2]; details: second compound 3.16 µM; first compound 10 µM; spheroids with HUVEC and MSC; active means viability on the fitted dose curve at most 10% of control; inactive means the rest;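 also: drug exposure lasted seven days after spheroids formed for three days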
Please answer using one outcome listed in active, inactive

Check out these entries, answers already filled in.
{"compound": "Cn1nccc1Nc1nccc(-c2cc3c(s2)C(C)(C)N(CCN2CCOCC2)C3=O)n1 + COc1cc2nc(C)nc(NC(C)c3cc(N)cc(C(F)(F)F)c3)c2cc1OC1CCOC1", "class": "active"}
{"compound": "CCNC(=O)CC1N=C(c2ccc(Cl)cc2)c2cc(OC)ccc2-n2c(C)nnc21 (stereo not given) + CC1OCC2(CCN(c3cnc(Sc4ccnc(N)c4Cl)c(N)n3)CC2)C1N", "class": "inactive"}
{"compound": "CC(C)NCC(C(=O)N1CCN(c2ncnc3c2C(C)CC3O)CC1)c1ccc(Cl)cc1 (stereo not given) + CNCc1ccccc1-c1csc(C(C)Nc2nc(C)nc3cc(OC)c(OC)cc23)c1", "class": "active"}
{"compound": "CC1(C)CCC(CN2CCN(c3ccc(C(=O)NS(=O)(=O)c4ccc(NCC5CCOCC5)c([N+](=O)[O-])c4)c(Oc4cnc5[nH]ccc5c4)c3)CC2)=C(c2ccc(Cl)cc2)C1 + COc1cc2nc(C)nc(NC(C)c3cc(N)cc(C(F)(F)F)c3)c2cc1OC1CCOC1", "class": "active"}

Recorded test call requested for COc1cc(Nc2ncc3c(n2)-c2ccc(Cl)cc2C(c2c(F)cccc2OC)=NC3)ccc1C(=O)O + CNCc1ccccc1-c1csc(C(C)Nc2nc(C)nc3cc(OC)c(OC)cc23)c1
active

Another compound to look at: Cn1nccc1Nc1nccc(-c2cc3c(s2)C(C)(C)N(CCN2CCOCC2)C3=O)n1 + C=CC(=O)N1CCN(c2nc(=O)n(-c3c(C)ccnc3C(C)C)c3nc(-c4c(O)cccc4F)c(F)cc23)C(C)C1
inactive

Another compound to look at: CC(C)NCC(C(=O)N1CCN(c2ncnc3c2C(C)CC3O)CC1)c1ccc(Cl)cc1 (stereo not given) + C=CC(=O)N1CCN(c2nc(OCC3CCCN3C)nc3c2CCN(c2cccc4cccc(C)c24)C3)CC1CC#N
active

Another compound to look at: COC(=O)c1ccc2c(C(=Nc3ccc(N(C)C(=O)CN4CCN(C)CC4)cc3)c3ccccc3)c(O)[nH]c2c1 + COc1cc2nc(C)nc(NC(C)c3cc(N)cc(C(F)(F)F)c3)c2cc1OC1CCOC1
active

Another compound to look at: COc1cc2nccc(Oc3ccc(NC(=O)C4(C(=O)Nc5ccc(F)cc5)CC4)cc3)c2cc1OC + C=CC(=O)N1CCN(c2nc(OCC3CCCN3C)nc3c2CCN(c2cccc4cccc(C)c24)C3)CC1CC#N
active

Another compound to look at: COc1cc2nccc(Oc3ccc(NC(=O)C4(C(=O)Nc5ccc(F)cc5)CC4)cc3)c2cc1OC + COc1cc2nc(C)nc(NC(C)c3cc(N)cc(C(F)(F)F)c3)c2cc1OC1CCOC1
inactive
